FYI, the data here is from ChEMBL document CHEMBL1136883.

target: Sigma non-opioid intracellular receptor 1 (Cavia porcellus, UniProt Q60492); assay: Displacement of [3H](+)-pentazocine from sigma 1 receptor in guinea pig brain membrane by solid scintillation analysis
Sequence (Q60492 whole entry): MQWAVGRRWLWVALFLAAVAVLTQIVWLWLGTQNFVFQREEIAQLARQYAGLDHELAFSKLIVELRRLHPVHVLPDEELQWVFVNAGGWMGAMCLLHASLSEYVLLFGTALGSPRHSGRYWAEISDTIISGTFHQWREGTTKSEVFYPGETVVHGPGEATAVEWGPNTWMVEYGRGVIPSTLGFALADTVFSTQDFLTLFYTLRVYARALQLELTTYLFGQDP
reportedMetric: Ki (nM)

[[record]]
molecule = "N#CC1OC2(CCN(Cc3ccc(F)cc3)CC2)c2ccccc21 (stereo unspecified)"
systemtested = "Sigma non-opioid intracellular receptor 1 (Cavia porcellus, UniProt Q60492)"
reportedmetric = "Ki"
observedresult = 0.86

[[record]]
molecule = "C=CCC1OC2(CCN(Cc3ccc(F)cc3)CC2)c2ccccc21 (stereo unspecified)"
systemtested = "Sigma non-opioid intracellular receptor 1 (Cavia porcellus, UniProt Q60492)"
reportedmetric = "Ki"
observedresult = 1.4

[[record]]
molecule = "OC1OC2(CCN(Cc3ccc(F)cc3)CC2)c2ccccc21 (stereo unspecified)"
systemtested = "Sigma non-opioid intracellular receptor 1 (Cavia porcellus, UniProt Q60492)"
reportedmetric = "Ki"
observedresult = 3.3

[[record]]
molecule = "O=C1OC2(CCN(Cc3ccc(F)cc3)CC2)c2ccccc21"
systemtested = "Sigma non-opioid intracellular receptor 1 (Cavia porcellus, UniProt Q60492)"
reportedmetric = "Ki"
observedresult = 7.7


(P) COC1OC2(CCN(Cc3ccc(F)cc3)CC2)c2ccccc21 (stereo unspecified)
(Q) Fc1ccc(CN2CCC3(CC2)OCc2ccccc23)cc1
Which value of Ki is greater, the one for P or the one for Q ? Kindly state the label of the option you pick. P
(P: 0.79 nM, Q: 0.18 nM)

###

assay: Metabolic stability in Wistar rat liver microsomes assessed as compound remaining after 30 mins by HPLC analysis; assay type: ADME, Microsome; conditions: read-out: Activity
reportedMetric: remaining at 0.5 h (%)
Reply with just the number (in %).

The compound Fc1ccc(CN2CCC3(CC2)OCc2ccccc23)cc1 showed remaining at 0.5 h equal to 13

###

assay: Displacement of [3H]di-o-tolylguanidine from sigma 2 receptor in rat liver homogenates by solid scintillation analysis; type: tissue-based
pKi: −log10 of the molar value.
reportedMetric: pKi

Here is how some compounds turned out for pKi.
[[record]]
compound = "O=C1OC2(CCN(Cc3ccc(F)cc3)CC2)c2ccccc21"
observedresult = 5.72

[[record]]
compound = "OC1OC2(CCN(Cc3ccc(F)cc3)CC2)c2ccccc21 (centres undefined)"
observedresult = 6.38


(a) Cc1ccccc1NC(=N)Nc1ccccc1C [DITOLYLGUANIDINE]
(b) Fc1ccc(CN2CCC3(CC2)OCc2ccccc23)cc1
Of a versus b , which is the one with smaller reported pKi? Kindly state the label of the option you pick. b
